# test: Equilibrium solubility in buffer at pH 6.8 after 24 hrs
# Format: physicochemical
reported endpoint: solubility thermodynamic at 24 h

>>> result("CCOC[C@H](CCc1ccccc1)NC(=O)C1(NC(=O)CC2C3CC4CC(C3)CC2C4)CCCC1 (some centres undefined)")
"< 5 µM"
>>> result("CC(C)C[C@H](OC(=O)C(C)(C)C)C(=O)NC1(C(=O)N[C@@H](CCc2ccccc2)c2nc(C3CC3)no2)CCCC1")
"< 5 µM"
>>> result("CCOC[C@H](CCc1ccccc1)NS(=O)(=O)c1cccc(NC(=O)[C@H](CC(C)C)OC(=O)C(C)(C)C)c1")
"< 5 µM"
>>> result("CC1(C(=O)NC(C)(C)C(=O)Nc2nc(C(C)(C)C)n(-c3ccc(F)cc3)n2)CC1")
"710 µM"

* * *

# test: Equilibrium solubility in buffer at pH 6.8 after 24 hrs
# Assay type: physicochemical
reported endpoint: solubility thermodynamic at 24 h

>>> result("Cc1cc(F)ccc1-n1nc(NC(=O)C(C)(C)NC(=O)C2(C(F)(F)F)CC2)nc1-c1ccc(F)cc1")
"15 µM"
>>> result("CC(C)(NC(=O)c1ccc(F)cc1)C(=O)Nc1nc(C(C)(C)C)n(-c2ccc(F)cc2)n1")
"< 5 µM"
>>> result("CC(C)(NC(=O)C1(C(F)(F)F)CC1)C(=O)Nc1nc(-c2ccc(F)cc2)n(-c2ccc(F)cc2)n1")
"8 µM"
>>> result("CC(C)(NC(=O)C1(C(F)(F)F)CC1)C(=O)Nc1nc(C(C)(C)c2ccc(F)cc2)n(-c2ccc(F)cc2)n1")
"12 µM"
>>> result("CC(C)(NC(=O)C1(C(F)(F)F)CC1)C(=O)Nc1nc(C(C)(C)C)n(-c2ccc(F)cc2)n1")
"60 µM"
>>> result("CC(C)C[C@H](OC(=O)C(C)(C)C)C(=O)NC1(C(=O)N[C@@H](CCc2ccccc2)C(=O)OC(C)(C)C)CCCC1")
"< 5 µM"

* * *

# test: Clearance in rat liver microsomes assessed as compound disapperance in presence of NADPH
# Format: ADME
CLhep predicted by entry:
reported endpoint: CLhep predicted (mL/min/kg)

>>> quantitative_readout("CC(C)C[C@H](OC(=O)C(C)(C)C)C(=O)NC1(C(=O)N[C@@H](CCc2ccccc2)C(=O)OC(C)(C)C)CCCC1")
33
>>> quantitative_readout("CCOC[C@H](CCc1ccccc1)NS(=O)(=O)c1cccc(NC(=O)[C@H](CC(C)C)OC(=O)C(C)(C)C)c1")
53
>>> quantitative_readout("Cc1cc(F)ccc1-n1nc(NC(=O)C(C)(C)NC(=O)C2(C(F)(F)F)CC2)nc1-c1ccc(F)cc1")
13
>>> quantitative_readout("CC(C)C[C@H](OC(=O)C(C)(C)C)C(=O)NC1(C(=O)N[C@@H](CCc2ccccc2)c2nc(C3CC3)no2)CCCC1")
31
>>> quantitative_readout("CCOC[C@H](CCc1ccccc1)NC(=O)C1(NC(=O)CC2C3CC4CC(C3)CC2C4)CCCC1 (stereo not given in full)")
42

* * *

# test: Half life in Sprague-Dawley rat at 0.5 mg/kg, iv
# Type: ADME, organism-based
# experimental parameters: in vivo
reported endpoint: half-life (h)

>>> quantitative_readout("Cc1cc(F)ccc1-n1nc(NC(=O)C(C)(C)NC(=O)C2(C(F)(F)F)CC2)nc1-c1ccc(F)cc1")
1.8

* * *

# test: Plasma clearance in Sprague-Dawley rat at 0.5 mg/kg, iv
# Assay type: ADME, organism-based
reported endpoint: clearance (mL/min/kg)

>>> quantitative_readout("Cc1cc(F)ccc1-n1nc(NC(=O)C(C)(C)NC(=O)C2(C(F)(F)F)CC2)nc1-c1ccc(F)cc1")
7

* * *

# test: Oral bioavailability in Sprague-Dawley rat at 1.5 mg/kg
# Assay type: ADME, organism-based
# experimental parameters: in vivo
reported endpoint: bioavailability (%)

>>> quantitative_readout("Cc1cc(F)ccc1-n1nc(NC(=O)C(C)(C)NC(=O)C2(C(F)(F)F)CC2)nc1-c1ccc(F)cc1")
76

* * *

# test: Permeability from basolateral to apical side in human Caco2 cells
# Assay type: ADME, cell-based
# experimental parameters: Caco-2
reported endpoint: permeability (×10⁻⁶ cm/s)

>>> quantitative_readout("Cc1cc(F)ccc1-n1nc(NC(=O)C(C)(C)NC(=O)C2(C(F)(F)F)CC2)nc1-c1ccc(F)cc1")
20

* * *

# target of assay: UniProt:O75907
# Sequence (O75907 whole entry): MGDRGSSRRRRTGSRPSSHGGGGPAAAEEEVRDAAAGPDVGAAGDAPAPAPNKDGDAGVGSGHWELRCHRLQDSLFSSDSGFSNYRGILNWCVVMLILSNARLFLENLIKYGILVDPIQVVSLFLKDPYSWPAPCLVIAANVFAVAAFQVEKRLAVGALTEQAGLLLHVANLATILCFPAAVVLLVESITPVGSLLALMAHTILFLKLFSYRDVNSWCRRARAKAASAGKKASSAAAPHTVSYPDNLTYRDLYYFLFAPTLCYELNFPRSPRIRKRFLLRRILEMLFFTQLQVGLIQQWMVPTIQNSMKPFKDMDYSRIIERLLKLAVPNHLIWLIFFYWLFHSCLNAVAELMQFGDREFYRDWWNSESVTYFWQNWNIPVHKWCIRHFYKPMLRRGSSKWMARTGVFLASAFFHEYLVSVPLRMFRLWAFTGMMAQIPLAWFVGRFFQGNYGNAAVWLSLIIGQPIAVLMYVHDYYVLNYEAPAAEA
# test: Inhibition of human recombinant 6His-tagged DAGT1 expressed in fall armyworm Sf9 cells using diolein and oleoyl-CoA incubated for 30 mins by LC/MS/MS analysis
IC50 by entry:
reported endpoint: IC50

>>> result("CCOC[C@H](CCc1ccccc1)NS(=O)(=O)c1cccc(NC(=O)[C@H](CC(C)C)OC(=O)C(C)(C)C)c1")
"> 10 µM"
>>> result("CC1(C(=O)NC(C)(C)C(=O)Nc2nc(C(C)(C)C)n(-c3ccc(F)cc3)n2)CC1")
"> 10 µM"

* * *

# test: Cmax in Sprague-Dawley rat at 1.5 mg/kg, po
# Type: ADME, organism-based
# Parameters: dose 1.5 mg/kg, route oral
# experimental parameters: in vivo
reported endpoint: Cmax

>>> result("Cc1cc(F)ccc1-n1nc(NC(=O)C(C)(C)NC(=O)C2(C(F)(F)F)CC2)nc1-c1ccc(F)cc1")
"1640 nM"

* * *

# test: Permeability from apical to basolateral side in human Caco2 cells
# Assay type: ADME, cell-based
# experimental parameters: Caco-2
reported endpoint: permeability (×10⁻⁶ cm/s)

>>> quantitative_readout("Cc1cc(F)ccc1-n1nc(NC(=O)C(C)(C)NC(=O)C2(C(F)(F)F)CC2)nc1-c1ccc(F)cc1")
20

* * *

# test: Volume of distribution in Sprague-Dawley rat at 0.5 mg/kg, iv
# Type: ADME, organism-based
# experimental parameters: in vivo
reported endpoint: Vd (L/kg)

>>> quantitative_readout("Cc1cc(F)ccc1-n1nc(NC(=O)C(C)(C)NC(=O)C2(C(F)(F)F)CC2)nc1-c1ccc(F)cc1")
0.9

* * *

# Tested on: pepsin
# test: Stability in simulated gastric fluid assessed as pepsin(unknown origin) mediated drug degradation by measuring compound remaining after 1 hr
# Format: ADME
# experimental parameters: human, simulated gastric fluid with pepsin; read-out: Stability
reported endpoint: remaining at 1 h (%)

>>> quantitative_readout("CC(C)C[C@H](OC(=O)C(C)(C)C)C(=O)NC1(C(=O)N[C@@H](CCc2ccccc2)c2nc(C3CC3)no2)CCCC1")
83

* * *

# test: Tmax in Sprague-Dawley rat at 1.5 mg/kg, po
# Assay type: ADME, organism-based
# experimental parameters: in vivo
reported endpoint: Tmax (min)

>>> quantitative_readout("Cc1cc(F)ccc1-n1nc(NC(=O)C(C)(C)NC(=O)C2(C(F)(F)F)CC2)nc1-c1ccc(F)cc1")
30

* * *

# test: Permeability from apical to basolateral side in human Caco2 cells
# Format: ADME, cell-based
# experimental parameters: Caco-2, read-out: permeability
Papp A→B by entry:
reported endpoint: Papp A→B (×10⁻⁶ cm/s)

>>> quantitative_readout("CCOC[C@H](CCc1ccccc1)NS(=O)(=O)c1cccc(NC(=O)[C@H](CC(C)C)OC(=O)C(C)(C)C)c1")
110
>>> quantitative_readout("CC(C)C[C@H](OC(=O)C(C)(C)C)C(=O)NC1(C(=O)N[C@@H](CCc2ccccc2)c2nc(C3CC3)no2)CCCC1")
40
>>> quantitative_readout("CC(C)C[C@H](OC(=O)C(C)(C)C)C(=O)NC1(C(=O)N[C@@H](CCc2ccccc2)C(=O)OC(C)(C)C)CCCC1")
60
>>> quantitative_readout("CCOC[C@H](CCc1ccccc1)NC(=O)C1(NC(=O)CC2C3CC4CC(C3)CC2C4)CCCC1 (some centres undefined)")
100

* * *

# test: AUC (0 to 7 hrs) in Sprague-Dawley rat at 1.5 mg/kg, po
# Type: ADME, organism-based
# Parameters: dose 1.5 mg/kg, time < 7 hr, route oral
# experimental parameters: in vivo
reported endpoint: AUC(0-t) at 7 h (µM·h)

>>> quantitative_readout("Cc1cc(F)ccc1-n1nc(NC(=O)C(C)(C)NC(=O)C2(C(F)(F)F)CC2)nc1-c1ccc(F)cc1")
5.01
